Test Target: Protein arginine N-methyltransferase 1 (Homo sapiens)
Protocol Text: human PRMT1 activity-probe blockers – biochemical, fluorescence polarization, primary screen (AID 652257)
Settings: recombinant PRMT1, activity-based probe fluorescence polarization; at 2.79 µM
The campaign covered roughly 370,000 compounds. About 4,800 (1.3%) were called active.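 Rule for the calls: active = inhibition above about 21% made by adding two undisclosed values (limit read from the data); inactive = the rest.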 What follows is part of a selection rich in actives, with near analogues and random picks from the rest.
Tick one outcome: active, inactive

Before answering, review these 5 worked examples.
>  <Compound>
N/C(=N\OC(=O)CCc1ccccc1)c1cccnc1

>  <Test Target>
Protein arginine N-methyltransferase 1 (Homo sapiens)

>  <Assigned Category>
inactive

$$$$
>  <Compound>
Cc1cc2nc(-c3ccco3)c(Cc3cccc(F)c3)n2c(C)c1Br

>  <Test Target>
Protein arginine N-methyltransferase 1 (Homo sapiens)

>  <Assigned Category>
active

$$$$
>  <Compound>
CC(C)NC(=O)C(c1ccc(F)cc1)N(C(=O)CCC(=O)Nc1ccccn1)c1ccccc1F (stereo not given)

>  <Test Target>
Protein arginine N-methyltransferase 1 (Homo sapiens)

>  <Assigned Category>
inactive

$$$$
>  <Compound>
Cc1cc2nc3c(=O)n(Cc4ccccc4)c(=O)[nH]c3nc2cc1N

>  <Test Target>
Protein arginine N-methyltransferase 1 (Homo sapiens)

>  <Assigned Category>
active

$$$$
>  <Compound>
CC(=O)c1ccc(Cc2ncc(C(F)(F)F)cc2Cl)s1

>  <Test Target>
Protein arginine N-methyltransferase 1 (Homo sapiens)

>  <Assigned Category>
inactive

$$$$

Call for entry COc1ccc(COCCN2CCN(S(=O)(=O)c3ccccc3)CCC2=O)cc1 :
inactive

Likewise for COc1cccc(N2CCN(CC(=O)N(C)Cc3ccc(F)cc3)CC2)c1 ?
inactive

###

Test Target: Protein arginine N-methyltransferase 1 (Homo sapiens) (UniProt Q99873)
Sequence (Q99873 whole entry, looked up): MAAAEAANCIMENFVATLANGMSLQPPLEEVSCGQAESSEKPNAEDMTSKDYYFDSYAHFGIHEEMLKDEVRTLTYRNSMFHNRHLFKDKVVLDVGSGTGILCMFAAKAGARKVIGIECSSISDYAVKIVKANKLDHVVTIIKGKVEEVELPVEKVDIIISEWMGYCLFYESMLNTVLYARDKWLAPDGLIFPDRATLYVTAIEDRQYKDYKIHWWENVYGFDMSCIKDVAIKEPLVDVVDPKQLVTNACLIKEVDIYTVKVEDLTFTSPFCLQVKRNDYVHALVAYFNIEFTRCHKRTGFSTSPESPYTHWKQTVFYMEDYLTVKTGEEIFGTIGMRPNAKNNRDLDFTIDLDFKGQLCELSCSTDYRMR
Protocol Text: human PRMT1 activity-probe blockers – biochemical, fluorescence polarization, primary screen (AID 652257)
Settings: recombinant PRMT1, activity-based probe fluorescence polarization; at 2.79 µM; hits give high values
About 4,800 (1.3%) of roughly 370,000 compounds were called active. Only a selection was taken, and actives are over-represented in it overall.
Observation Type: inhibition (%)
I only need the number, in %, no unit after it.

# count of solved cases: 2
>  <Compound>
Cc1ccc(CSCC(N)C(=O)O)cc1 (stereo unspecified)

>  <Test Target>
Protein arginine N-methyltransferase 1 (Homo sapiens) (UniProt Q99873)

>  <Unit Abbrev>
%

>  <inhibition>
0.39

$$$$
>  <Compound>
CN=C(c1ccccc1)c1c(C)cccc1C

>  <Test Target>
Protein arginine N-methyltransferase 1 (Homo sapiens) (UniProt Q99873)

>  <Unit Abbrev>
%

>  <inhibition>
-2.83

$$$$

Query: inhibition; subject: Cc1c(NC(=O)/C=C/C(=O)O)cccc1[N+](=O)[O-]
70.3

Likewise for O=C(NCC(=O)N1CCN(c2ncc(C(F)(F)F)cc2Cl)CC1)c1ccc(Br)o1 ?
-1.7

Likewise for CCOC(=O)C1(Cc2ccccc2)CCN(Cc2cn(C(C)=O)c3ccccc23)CC1 ?
2.34

###

Test Target: Protein arginine N-methyltransferase 1 (Homo sapiens) (UniProt Q99873)
Protocol Text: human PRMT1 activity-probe blockers – biochemical, fluorescence polarization, primary screen (AID 652257)
Settings: recombinant PRMT1, activity-based probe fluorescence polarization; at 2.79 µM
About 4,800 (1.3%) of roughly 370,000 compounds were called active.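 Rule for the calls: active = inhibition above about 21% made by adding two undisclosed values (limit read from the data); inactive = the rest.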 The sample holds actives, similar compounds and a random draw of the others, so the mix is not that of the screen.
Tick one outcome: active, inactive

Before answering, review these 2 worked examples.
>  <Molecule>
COC(=O)[C@]1(C#N)CC(=O)N(CC2CCCCC2)[C@@H]1c1ccccc1

>  <Assigned Category>
inactive

$$$$
>  <Molecule>
Cc1sc2nc(CSCC(=O)NC3CCCCC3)[nH]c(=O)c2c1C

>  <Assigned Category>
active

$$$$

Call for entry COC(=O)[C@]12C[C@H](CC(=O)NCc3cccs3)C(=O)N(CCc3ccc(OC)c(OC)c3)C1=C[C@H](C(C)C)O[C@@H]2C1CC1 :
inactive

Likewise for COCCn1c(SCC(=O)Nc2cc(Cl)ccc2OC)nc2c(c1=O)SC(C)C2 (stereo not given) ?
inactive

Likewise for COC(=O)[C@]12C[C@H](CC(=O)NCc3ccccc3)C(=O)N(CCC3=CCCCC3)C1=C[C@H](C(C)C)O[C@@H]2C1CC1 ?
inactive

Likewise for CN(C(=O)c1cccc(NC(=O)Cc2cccc([N+](=O)[O-])c2)c1)C1CCCCC1 ?
inactive

Likewise for CCc1ccc(NC(=O)C(C)OC(=O)/C=C/c2cccc([N+](=O)[O-])c2)cc1 (stereo not given) ?
inactive

Likewise for CNC(=S)NNC(=O)c1oc2nc(-c3ccccc3)cc(-c3ccco3)c2c1N ?
active

Likewise for O=C(CSc1nnc(C2CC2)n1Cc1ccccc1)Nc1cccnc1Cl ?
inactive

Likewise for CCc1n[nH]c(=S)n1/N=C/c1c[nH]c2ccc(Br)cc12 ?
active

Likewise for C=CC1=C(C(=O)O)N2C(=O)[C@@H](NC(=O)/C(=N\OCC(=O)O)c3csc(N)n3)[C@H]2SC1 ?
active

Likewise for COC(=O)c1cc(S(=O)(=O)N2CCN(C(=O)C3CCCO3)CC2)cn1C (stereo not given) ?
inactive

Likewise for COc1ccc(C2NC(=O)C(=O)/C2=C(\O)c2ccc(Cl)cc2)cc1OC (stereo not given) ?
inactive
